Where do the numbers come from? From patent US4424351A.

Tested on: mice
experimental protocol: analgesic effect, writhing test (acetic acid i.p.)
Type: in vivo
study conditions: LD50/ED50, writhing test, mice p.o.
Some compounds, each annotated with its measured Therapeutical index (LD50/ED50), analgesic effect.

# compound, tgt, measured
measured = [
    ("CC(=O)N1N=C(c2ccccc2)Nc2cnccc21 [Example 17]", "mice", 60.87),
    ("CCCC(=O)N1N=C(c2ccccc2)Nc2cnccc21 [Example 19]", "mice", 20),
]

Now look at this one.
Lookup: Find the recorded Therapeutical index (LD50/ED50), analgesic effect belonging to CCC(=O)N1C=NN(C(=O)CC)c2ccncc21 [Example 18] and report it.
Found: 75

* * *

Some molecules, each annotated with its measured LD50.
experimental protocol: in vivo
study conditions: mouse, mice, oral
Write the value in mg/kg as a bare number.

Record excerpt, results attached:
# molecule, uom, measured
data = [
    ("CCC(=O)N1N=C(C)Nc2cnccc21", "mg/kg", 500),
    ("CC(=O)N1N=C(c2ccccc2)Nc2cnccc21", "mg/kg", 1400),
    ("CCC(=O)N1C=NN(C(=O)CC)c2ccncc21", "mg/kg", 450),
    ("CCCC(=O)N1N=C(c2ccccc2)Nc2cnccc21", "mg/kg", 1500),
    ("CC(=O)N1C=NN(C(C)=O)c2ccncc21", "mg/kg", 360),
]

Lookup: Find the recorded LD50 belonging to CCC(=O)N1N=C(c2ccccc2)Nc2cnccc21.Cl [12 (HCl)] and report it.
Found: 2000

* * *

Tested on: mice
experimental protocol: analgesic effect, writhing test (acetic acid i.p.)
Format: in vivo
study conditions: Mus musculus; mice, oral 1 h before 0.4 ml of 0.5% acetic acid i.p.; dosage decreasing number of writhings by 50%; read-out: ED50 p.o. (analgesic effect)
Description: The analgesic effect of the new compounds according to the invention was investigated on mice by the so-called writhing test. […] The animals were treated orally with the compound to be tested one hour before the introduction of acetic acid. The animals belonging to the control group received vehicle only.
Some compounds, each annotated with its measured ED50.
Write the value in mg/kg as a bare number.

Record excerpt, results attached:
# compound, measured quantity, measured
records = [
    ("CCC(=O)N1N=C(c2ccccc2)Nc2cnccc21 [Example 12]", "ED50", 50),
    ("CC(=O)N1N=C(c2ccccc2)Nc2cnccc21 [Example 17]", "ED50", 23),
    ("CCC(=O)N1C=NN(C(=O)CC)c2ccncc21 [Example 18]", "ED50", 6),
]

Lookup: Find the recorded ED50 belonging to CCCCC1C(=O)N(c2ccccc2)N(c2ccccc2)C1=O [Phenylbutazone, reference compound] and report it.
Found: 65

Lookup: // same read-out, input: CCCC(=O)N1N=C(c2ccccc2)Nc2cnccc21 [Example 19]
Found: 75
